Hello, the source for this data is patent US9833497B2, in case you need it.

Could you please report measured MIC against K. pneumonia for the items listed next?
# Test system: Klebsiella pneumonia
# TEST_PROTOCOL: MIC against Gram-negative bacteria: Klebsiella pneumonia
# Type: cell-based
# CONDITION_NOTES: 96-well plate, 5×10^5 CFU/mL, 37° C., 10 h
Answers are plain numbers, in µg/mL.

Example substances with recorded MIC against K. pneumonia:
>  <SUBSTANCE>
PRT497 (CACPHSPPASFSPTCVLEGDHDFRCDACLLGYEGKHCERCSSSYYGNPQTPGGSCQK; listed as Homo sapiens)

>  <MIC against K. pneumonia (µg/mL)>
12.5

$$$$
>  <SUBSTANCE>
PRT485 (QADPCKFLACGEFAQCVKNERTEEAECRCKPGYDSQGSL; listed as Homo sapiens)

>  <MIC against K. pneumonia (µg/mL)>
25

$$$$
>  <SUBSTANCE>
PRT518 (CACPLNIPSNNFSPTCHLDRSLGLICDGCPVGYTGPRCERCAEGYFGQPSVPGGSCQP; listed as Homo sapiens)

>  <MIC against K. pneumonia (µg/mL)>
25

$$$$

Notebook: PRT453 (DINECEQFGTCPQHCRNTKGSYECVCADGFT; listed as Homo sapiens) , MIC against K. pneumonia read as 50
